Target: mERβ1 (Oryzias latipes, UniProt A0ACM8PZQ7)
Sequence (A0ACM8PZQ7 1-562): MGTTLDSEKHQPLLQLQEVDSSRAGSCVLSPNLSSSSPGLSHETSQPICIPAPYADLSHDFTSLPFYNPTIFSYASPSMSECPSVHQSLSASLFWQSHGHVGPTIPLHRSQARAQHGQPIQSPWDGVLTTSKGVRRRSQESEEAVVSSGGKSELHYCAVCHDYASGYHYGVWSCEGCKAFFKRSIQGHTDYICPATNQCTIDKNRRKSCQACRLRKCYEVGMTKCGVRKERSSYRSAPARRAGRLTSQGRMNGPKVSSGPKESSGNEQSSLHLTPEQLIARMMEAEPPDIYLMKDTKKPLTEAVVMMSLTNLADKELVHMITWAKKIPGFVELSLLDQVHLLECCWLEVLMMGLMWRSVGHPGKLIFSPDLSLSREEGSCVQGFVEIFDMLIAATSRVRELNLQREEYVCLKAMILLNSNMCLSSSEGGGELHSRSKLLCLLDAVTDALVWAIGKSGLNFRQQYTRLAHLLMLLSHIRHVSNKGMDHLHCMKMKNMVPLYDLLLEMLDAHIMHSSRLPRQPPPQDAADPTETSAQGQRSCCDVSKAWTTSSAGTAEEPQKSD
Test: Competitive ligand binding assay
Set-up: species or system medaka
Details: ratio of IC50 of E2β to IC50 of competitor
For each record, write down the corresponding RBA (%) mERβ1.
Answers are plain numbers, in %.

compound="C[C@]12CC[C@@H]3c4ccc(O)cc4CC[C@H]3[C@@H]1CCC2=O [E1, estrone]" assay_value=12.6

Quick request: RBA (%) mERβ1 for each listed item, please.
1. C[C@]12CC[C@@H]3c4ccc(O)cc4CC[C@H]3[C@@H]1CC[C@@H]2O [E2β, 17β-estradiol]
2. C[C@]12CC[C@@H]3c4ccc(O)cc4CC[C@H]3[C@@H]1C[C@@H](O)[C@@H]2O [E3, estriol]
3. C[C@]12CC[C@@H]3c4ccc(O)cc4CC[C@H]3[C@@H]1CC[C@H]2O [E2α, 17α-estradiol]

1. 100.0
2. 10.0
3. 9.6

----------
target: mERβ2 (Oryzias latipes, UniProt B1B6T4); assay: Competitive ligand binding assay; design: species or system medaka; conditions: ratio of IC50 of E2β to IC50 of competitor
For each record, write down the corresponding RBA (%) mERβ2.
Numbers only, in %.

compound=C[C@]12CC[C@@H]3c4ccc(O)cc4CC[C@H]3[C@@H]1CC[C@H]2O tested_system="mERβ2 (Oryzias latipes, UniProt B1B6T4)" assay_value=6.8

Quick request: RBA (%) mERβ2 for each listed item, please.
1. C[C@]12CC[C@@H]3c4ccc(O)cc4CC[C@H]3[C@@H]1CCC2=O [E1, estrone]
2. C[C@]12CC[C@@H]3c4ccc(O)cc4CC[C@H]3[C@@H]1CC[C@@H]2O
3. C[C@]12CC[C@@H]3c4ccc(O)cc4CC[C@H]3[C@@H]1C[C@@H](O)[C@@H]2O

14.6
100.0
6.1

----------
Target: mERα (Oryzias latipes)
Sequence (P50241 1-620): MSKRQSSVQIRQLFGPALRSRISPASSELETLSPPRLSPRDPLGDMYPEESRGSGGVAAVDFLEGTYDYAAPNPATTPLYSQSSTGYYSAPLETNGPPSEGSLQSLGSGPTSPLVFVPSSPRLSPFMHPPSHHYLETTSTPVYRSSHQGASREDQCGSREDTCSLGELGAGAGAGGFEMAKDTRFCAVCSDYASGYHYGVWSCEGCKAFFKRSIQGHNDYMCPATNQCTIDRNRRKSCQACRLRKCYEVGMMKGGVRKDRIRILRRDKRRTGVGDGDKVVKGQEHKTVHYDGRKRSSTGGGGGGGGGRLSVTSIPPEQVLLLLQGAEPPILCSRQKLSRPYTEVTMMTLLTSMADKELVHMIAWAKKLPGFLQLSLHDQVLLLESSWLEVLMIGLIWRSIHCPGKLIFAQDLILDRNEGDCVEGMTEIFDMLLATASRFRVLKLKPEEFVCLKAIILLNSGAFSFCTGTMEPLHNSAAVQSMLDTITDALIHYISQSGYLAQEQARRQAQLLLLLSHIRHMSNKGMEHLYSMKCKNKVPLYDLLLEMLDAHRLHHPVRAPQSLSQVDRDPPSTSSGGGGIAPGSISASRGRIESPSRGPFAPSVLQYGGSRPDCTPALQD
Experimental Endpoint: IC50 (nM)
Numbers only, in nM.

I'd like to know its IC50. The molecule in question is C[C@]12CC[C@@H]3c4ccc(O)cc4CC[C@H]3[C@@H]1CCC2=O [E1, estrone]
8.4

----------
Recorded below: pIC50, system mERβ1 (Oryzias latipes).
Give bare numbers, as −log10 of the molar value.

Some molecules with recorded pIC50:
molecule=C[C@]12CC[C@@H]3c4ccc(O)cc4CC[C@H]3[C@@H]1CC[C@H]2O assay_value=7.73
molecule="C[C@]12CC[C@@H]3c4ccc(O)cc4CC[C@H]3[C@@H]1CCC2=O [E1, estrone]" assay_value=7.84
molecule=C[C@]12CC[C@@H]3c4ccc(O)cc4CC[C@H]3[C@@H]1CC[C@@H]2O assay_value=8.74

Here's the next entry for you.
I'd like to know its pIC50. The molecule in question is "C[C@]12CC[C@@H]3c4ccc(O)cc4CC[C@H]3[C@@H]1C[C@@H](O)[C@@H]2O"
7.74

----------
For each record, write down the corresponding IC50.
Molecular target: mERβ2 (Oryzias latipes, UniProt B1B6T4)
Sequence (B1B6T4 1-542): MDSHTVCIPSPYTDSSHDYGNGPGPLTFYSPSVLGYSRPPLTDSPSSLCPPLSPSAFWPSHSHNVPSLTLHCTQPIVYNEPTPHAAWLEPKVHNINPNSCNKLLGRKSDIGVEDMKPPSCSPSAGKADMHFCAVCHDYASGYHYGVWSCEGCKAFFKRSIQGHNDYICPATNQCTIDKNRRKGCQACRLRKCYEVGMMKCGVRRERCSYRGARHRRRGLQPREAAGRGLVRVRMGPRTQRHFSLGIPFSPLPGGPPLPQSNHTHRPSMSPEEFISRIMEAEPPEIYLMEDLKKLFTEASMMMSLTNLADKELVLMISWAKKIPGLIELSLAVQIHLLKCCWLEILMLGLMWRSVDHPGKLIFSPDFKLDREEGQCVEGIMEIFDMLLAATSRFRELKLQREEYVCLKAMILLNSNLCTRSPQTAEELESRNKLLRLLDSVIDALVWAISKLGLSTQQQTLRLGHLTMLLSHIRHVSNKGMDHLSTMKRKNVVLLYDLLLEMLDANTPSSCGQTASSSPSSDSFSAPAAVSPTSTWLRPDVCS
Give bare numbers, in nM.

compound=C[C@]12CC[C@@H]3c4ccc(O)cc4CC[C@H]3[C@@H]1CC[C@H]2O tested_system="mERβ2 (Oryzias latipes, UniProt B1B6T4)" assay_value=31.1

Quick request: IC50 for each listed item, please.
1. C[C@]12CC[C@@H]3c4ccc(O)cc4CC[C@H]3[C@@H]1CC[C@@H]2O
2. C[C@]12CC[C@@H]3c4ccc(O)cc4CC[C@H]3[C@@H]1CCC2=O [E1, estrone]
3. C[C@]12CC[C@@H]3c4ccc(O)cc4CC[C@H]3[C@@H]1C[C@@H](O)[C@@H]2O

2.1
14.4
34.2

FYI, the data here is from paper PMC4014147.
